- test.details: gradient 5% acetonitrile 3 min, to 50% in 2 min, to 85% in 15 min, held 3 min, 100 µL/min
- stated.conditions: column: Zorbax Extend-C18 2.1 x 50 mm; eluents: water / acetonitrile, 0.1% formic acid
Classification by RP-LC retention time follows these ranges: lower = under 600 s, middle = from 600 s up to 800 s, upper = 800 s and over

[ask] Please let me know in which category the item Nc1ccc(S(=O)(=O)N2CCCCC2c2cccnc2)cc1 (centres undefined) belongs.
[reply] lower

[ask] Please let me know in which category the item "CCOC(=O)c1nc(N2CCN(c3cccc(C(F)(F)F)c3)CC2)c2ccccc2n1" belongs.
[reply] upper

[ask] Please let me know in which category the item "COc1cccc(-c2ccc(=O)n(Cc3nc(-c4cccc(Br)c4)no3)n2)c1" belongs.
[reply] upper

[ask] Please let me know in which category the item "CCCCNC(=O)CCc1c(C)n(C)c2nc(-c3ccccc3)nn2c1=O" belongs.
[reply] middle

[ask] Please let me know in which category the item "CCCn1cc(CCNC(=O)c2ccc(Cl)s2)c2cccnc21" belongs.
[reply] upper
